# System: T1, His/Avi-CynoIL18BP (recombinant cynomolgus IL-18BP with His and Avi tags) (cynomolgus monkey)
# T1 construct: also called cynomolgus IL-18BP-Avi-His
# T1 chain: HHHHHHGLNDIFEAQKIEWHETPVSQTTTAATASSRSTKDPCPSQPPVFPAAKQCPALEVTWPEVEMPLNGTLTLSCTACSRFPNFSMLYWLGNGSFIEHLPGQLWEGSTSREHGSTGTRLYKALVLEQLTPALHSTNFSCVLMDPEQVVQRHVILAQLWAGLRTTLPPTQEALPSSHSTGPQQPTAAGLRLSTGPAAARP
# Protocol Description: SPR Biacore T200, IgG captured on Protein A/G
Measurement Name: kon (M⁻¹ s⁻¹)
Provide the reading as a plain figure in M⁻¹ s⁻¹.

INSERT INTO results (binder, obs_value) VALUES
  ('anti-IL-18BP antibody variant BP-04.15 (antibody, V domains shown) VH: QVQLVQSGAEVKKPGASVKVSCKASGYTFTDYDMHWVRQAPGQGLEWMGIISTYYGDVSYAQKFQGRVTMTRDKSTSTVYMELSSLRSEDTAVYYCARSGTYNYGTRESHPLDYWGQGTLVTVSS VL: DIQMTQSPSSVSASVGDRVTITCRASDNVYSNLAWYQQKPGKAPKLLIYGAISLADGVPSRFSGSGSGTDFTLTISSLQPEDFATYYCQHFWGNPYTFGQGTKLEIK', 200000);

// next item, kon requested
-- ask Looking for the measured kon of anti-IL-18BP antibody variant BP-04.05 (antibody, V domains shown) VH: QVQLVQSGAEVKKPGASVKVSCKASGYTFTDYDMHWVRQAPGQGLEWMGIISTYYGVVSYAQKKQGRVTMTRDKSTSTVYMELSSLRSEDTAVYYCARSGTYYYGTRESHAFDYWGQGTLVTVSS VL: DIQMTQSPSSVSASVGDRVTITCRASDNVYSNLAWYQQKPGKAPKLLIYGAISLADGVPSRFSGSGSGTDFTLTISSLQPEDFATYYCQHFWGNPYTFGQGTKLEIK , can you help?
-- reply 460000
